- systemTested: CIC-1 ion channel (Rattus norvegicus)
- Sequence (P35524 1-994): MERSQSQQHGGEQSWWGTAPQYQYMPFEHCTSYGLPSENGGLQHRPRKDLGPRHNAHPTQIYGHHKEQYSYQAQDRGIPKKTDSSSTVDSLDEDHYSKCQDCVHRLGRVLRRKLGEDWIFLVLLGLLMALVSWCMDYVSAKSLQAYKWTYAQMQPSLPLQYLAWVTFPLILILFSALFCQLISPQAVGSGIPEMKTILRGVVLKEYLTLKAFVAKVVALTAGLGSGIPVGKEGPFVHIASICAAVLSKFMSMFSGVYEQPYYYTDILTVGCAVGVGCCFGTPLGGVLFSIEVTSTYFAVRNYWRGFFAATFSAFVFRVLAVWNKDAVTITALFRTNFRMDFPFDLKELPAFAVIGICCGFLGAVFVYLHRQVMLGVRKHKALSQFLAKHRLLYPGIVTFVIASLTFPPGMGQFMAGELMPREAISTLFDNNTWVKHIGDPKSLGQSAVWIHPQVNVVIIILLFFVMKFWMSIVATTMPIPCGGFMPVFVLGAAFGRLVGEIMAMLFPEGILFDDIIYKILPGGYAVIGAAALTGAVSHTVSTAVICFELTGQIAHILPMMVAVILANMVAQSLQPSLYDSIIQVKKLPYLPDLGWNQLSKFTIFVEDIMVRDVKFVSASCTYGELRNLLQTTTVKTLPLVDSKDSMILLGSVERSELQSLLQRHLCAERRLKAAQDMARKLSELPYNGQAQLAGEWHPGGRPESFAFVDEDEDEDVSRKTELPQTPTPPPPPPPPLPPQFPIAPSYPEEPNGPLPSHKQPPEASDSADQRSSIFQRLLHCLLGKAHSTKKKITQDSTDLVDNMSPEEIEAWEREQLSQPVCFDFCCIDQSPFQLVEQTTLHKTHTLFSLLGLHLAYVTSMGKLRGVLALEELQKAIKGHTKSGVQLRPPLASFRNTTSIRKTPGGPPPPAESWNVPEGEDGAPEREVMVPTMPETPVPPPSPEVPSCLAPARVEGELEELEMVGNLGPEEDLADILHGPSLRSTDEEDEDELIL
- assayDetails: Electrophysiological measurement (Gm, three micro-electrodes) of compound inhibition of CIC-1 in rat soleus muscle fibres
- conditionNotes: Gm in whole rat soleus muscle fibres, approx. 30° C., four increasing compound concentrations
Measured EC50, listed per entry.
Numbers only here, please. The scale is µM.

**Q:** Return reported EC50; argument: Cc1cc(Cl)c(OC2CC2)c(C(=O)O)c1C
**A:** 6.6

###

- systemTested: CIC-1 ion channel (Rattus norvegicus, UniProt P35524)
- Sequence (P35524 1-994): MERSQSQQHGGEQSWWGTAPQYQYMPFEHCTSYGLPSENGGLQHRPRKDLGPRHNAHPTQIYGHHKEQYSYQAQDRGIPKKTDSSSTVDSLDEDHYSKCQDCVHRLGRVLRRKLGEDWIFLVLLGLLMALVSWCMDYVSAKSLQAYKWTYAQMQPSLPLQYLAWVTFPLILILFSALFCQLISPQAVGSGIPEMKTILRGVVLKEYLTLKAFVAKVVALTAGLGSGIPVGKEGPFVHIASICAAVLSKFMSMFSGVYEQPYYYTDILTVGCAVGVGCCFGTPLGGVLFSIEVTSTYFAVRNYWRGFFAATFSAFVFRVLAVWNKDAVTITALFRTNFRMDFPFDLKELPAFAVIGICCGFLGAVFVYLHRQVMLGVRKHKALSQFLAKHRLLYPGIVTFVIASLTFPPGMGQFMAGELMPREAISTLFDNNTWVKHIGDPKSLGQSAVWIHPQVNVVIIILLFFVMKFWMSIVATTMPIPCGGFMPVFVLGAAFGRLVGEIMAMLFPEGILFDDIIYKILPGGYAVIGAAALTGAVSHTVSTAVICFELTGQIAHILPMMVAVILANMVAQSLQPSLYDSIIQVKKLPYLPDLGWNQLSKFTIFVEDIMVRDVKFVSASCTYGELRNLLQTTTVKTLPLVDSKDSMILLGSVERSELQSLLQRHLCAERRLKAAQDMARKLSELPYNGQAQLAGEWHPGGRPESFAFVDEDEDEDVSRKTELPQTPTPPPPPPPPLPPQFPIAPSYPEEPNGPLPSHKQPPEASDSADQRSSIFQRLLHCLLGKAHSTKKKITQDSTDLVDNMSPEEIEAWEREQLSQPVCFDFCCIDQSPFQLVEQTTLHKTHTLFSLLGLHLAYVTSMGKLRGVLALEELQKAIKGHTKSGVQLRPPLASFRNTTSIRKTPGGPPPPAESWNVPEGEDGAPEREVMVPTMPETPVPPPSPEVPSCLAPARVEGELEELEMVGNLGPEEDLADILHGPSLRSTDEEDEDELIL
- assayDetails: Electrophysiological measurement (Gm, three micro-electrodes) of compound inhibition of CIC-1 in rat soleus muscle fibres
- conditionNotes: Gm in whole rat soleus muscle fibres, approx. 30° C., four increasing compound concentrations
Measured EC50, listed per entry.
Numbers only here, please. The scale is µM.

Reference set, count: 4
{"columns": ["smi", "systemTested", "valueUnits", "EC50"],
 "data": [
  ["CSc1c(Cl)cc(C)c(C)c1C(=O)O", "CIC-1 ion channel (Rattus norvegicus, UniProt P35524)", "µM", 3.2],
  ["COc1c(C)cc(Cl)c(OC)c1C(=O)O", "CIC-1 ion channel (Rattus norvegicus, UniProt P35524)", "µM", 5.3],
  ["COc1c(Cl)cc(Cl)c(OC)c1C(=O)O", "CIC-1 ion channel (Rattus norvegicus, UniProt P35524)", "µM", 7.4],
  ["COc1c(Cl)cc(C)c(C)c1C(=O)O", "CIC-1 ion channel (Rattus norvegicus, UniProt P35524)", "µM", 3.2]
]}

Next up:
**Q:** Return reported EC50; argument: Cc1cc(Cl)c(OCF)c(C(=O)O)c1C
**A:** 4.1
